Origin of measurements: patent US20100048462A1

Tested target: Saos-2 PTH1R (Homo sapiens)
Construct: endogenous in cells
Sequence (Q03431 27-593): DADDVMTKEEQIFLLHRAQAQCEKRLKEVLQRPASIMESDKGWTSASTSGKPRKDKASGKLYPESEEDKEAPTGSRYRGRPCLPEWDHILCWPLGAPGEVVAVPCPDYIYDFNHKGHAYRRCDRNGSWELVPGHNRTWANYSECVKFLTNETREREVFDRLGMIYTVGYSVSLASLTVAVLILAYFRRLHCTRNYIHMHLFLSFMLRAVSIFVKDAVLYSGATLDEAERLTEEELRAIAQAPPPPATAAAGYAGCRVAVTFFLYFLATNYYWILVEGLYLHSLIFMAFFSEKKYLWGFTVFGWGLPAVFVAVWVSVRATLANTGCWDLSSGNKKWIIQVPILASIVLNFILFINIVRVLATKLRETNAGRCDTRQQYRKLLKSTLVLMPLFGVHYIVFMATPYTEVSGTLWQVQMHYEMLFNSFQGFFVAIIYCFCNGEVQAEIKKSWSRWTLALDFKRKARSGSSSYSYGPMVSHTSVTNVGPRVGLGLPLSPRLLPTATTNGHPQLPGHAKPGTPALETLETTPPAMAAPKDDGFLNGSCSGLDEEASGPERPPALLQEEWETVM
Protocol description: cAMP-efficacy assay in Saos-2 cells
Settings: cAMP, 100 μM IBMX, 37° C. 15 min, suffix of label = salt tested
Bridge positions count the residues as written; N and C are the ends. Square brackets hold non-standard residues; d marks the D form. Peptide text beside a SMILES is read from it. hArg = N=C(N)NCCCC[C@H](N)C(=O)O; Ac5c = NC1(C(=O)O)CCCC1; Aib = CC(C)(N)C(=O)O
Here the recorded EC50 is given for each entry.
Value expressed in nM; do not type the unit.

Answered examples (2):
Compound	Scale unit	EC50
CC[C@H](C)[C@H](NC(=O)[C@H](CCC(=O)O)NC(=O)C(C)(C)NC(=O)[C@@H](NC(=O)C1(N)CCCC1)C(C)C)C(=O)N[C@@H](CCC(N)=O)C(=O)N[C@@H](CC(C)C)C(=O)N[C@@H](CCSC)C(=O)N[C@@H](Cc1c[nH]cn1)C(=O)N[C@@H](CCC(N)=O)C(=O)N[C@@H](CCCCNC(=N)N)C(=O)N[C@@H](C)C(=O)N[C@@H](CCCCN)C(=O)N[C@@H](Cc1c[nH]c2ccccc12)C(N)=O [SEQ ID NO: 31, reference compound] (H-[Ac5c]V[Aib]EIQLMHQ[hArg]AKW-NH2)	nM	21.9
CC[C@H](C)[C@H](NC(=O)[C@H](CCC(=O)O)NC(=O)C(C)(C)NC(=O)[C@@H](NC(=O)C1(N)CCCC1)C(C)C)C(=O)N[C@@H](CCC(N)=O)C(=O)N[C@@H](CC(C)C)C(=O)N[C@@H](CCSC)C(=O)N[C@@H](Cc1c[nH]cn1)C(=O)N[C@@H](CC(N)=O)C(=O)N[C@@H](CC(C)C)C(=O)NCC(=O)N[C@H]1CCCCNC(=O)C[C@@H](C(N)=O)NC(=O)[C@H](CC(N)=O)NC(=O)[C@H](CC(C)C)NC(=O)[C@H](Cc2c[nH]cn2)NC1=O [SEQ ID NO: 34] (H-[Ac5c]V[Aib]EIQLMHNLGKHLND-NH2; lactam 13-17)	nM	214

// next entry
I am curious: what EC50 value has been reported for CC[C@H](C)[C@H](NC(=O)[C@H](CCC(=O)O)NC(=O)C(C)(C)NC(=O)[C@@H](NC(=O)C1(N)CCCC1)C(C)C)C(=O)N[C@@H](CCC(N)=O)C(=O)N[C@@H](CC(C)C)C(=O)N[C@@H](CCSC)C(=O)N[C@@H](Cc1c[nH]cn1)C(=O)N[C@@H](CC(N)=O)C(=O)N[C@@H](CC(C)C)C(=O)NCC(=O)N[C@@H](CCCCN)C(=O)N[C@@H](Cc1c[nH]cn1)C(=O)N[C@@H](CC(C)C)C(=O)N[C@@H](CC(N)=O)C(=O)N[C@@H](CO)C(N)=O [SEQ ID NO: 35] (H-[Ac5c]V[Aib]EIQLMHNLGKHLNS-NH2) ? 8130
